z-score values for the molecules below.
PROTOCOL_DESCRIPTION: yeast growth modulation, basal conditions, primary screen, YJM789 clinical isolate, OD600, 24 h (AID 1089);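 also: growth of clinical yeast isolate S. cerevisiae YJM 789 seeded 1000 cells per well; test concentration not given here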
RUN_CONDITIONS: S. cerevisiae YJM789 growth, higher = more signal, called active from +8 up or from −8 down

| MOLECULE | z-score |
| --- | --- |
| COC(=O)[C@H](C)NC(=O)CCC1CC(OC(=O)NCc2ccc3c(c2)OCO3)CC2(CCCC(COC(=O)NCc3ccccc3)O2)O1 (some centres undefined) | 0.24 |
| CC(CCN1CCc2nc(-c3ccccc3)c(-c3ccccc3)cc2C1)=NO[C@@H](C)c1cc(-c2c(C)cc(C)cc2C)no1 | -0.295 |
| O=C1C2=CC[C@H]3C(=O)N(c4ccc(F)cc4F)C(=O)[C@H]3[C@H]2[C@H](O)[C@@H]2O[C@H]12 | -0.892 |
| C=CC[C@@H]1C=CC(ON=C(C)C)[C@@H](CO)O1 (some centres undefined) | 1.03 |
